This listing pairs sequences with measured binding signal.
System Under Test: OsWOX13 (Oryza sativa, UniProt Q5QMM3 1-267)
Sequence: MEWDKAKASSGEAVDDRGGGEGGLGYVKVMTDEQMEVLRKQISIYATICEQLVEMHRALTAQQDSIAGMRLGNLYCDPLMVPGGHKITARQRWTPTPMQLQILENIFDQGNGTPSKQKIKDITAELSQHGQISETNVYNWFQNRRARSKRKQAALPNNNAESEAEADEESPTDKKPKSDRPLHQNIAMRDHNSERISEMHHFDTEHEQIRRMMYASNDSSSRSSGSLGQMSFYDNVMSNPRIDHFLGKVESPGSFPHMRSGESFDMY
Assay Method Text: protein-binding microarray (RPBM); PBS, 2% BSA, 51.3 ng/ul salmon testes DNA, 50 uM zinc acetate, 200 nM TF, 25 C, 1 h; high values mean tight binding
Condition Set: protein: recombinant; tags: N-terminal polyhistidine and DsRed monomer fusion (pET32a); label: CyDye5-dUTP incorporated in the synthesized complementary strand; 3' TTTTT single-stranded linker to array surface; dsDNA, one strand shown
In all, about 35,000 sequences were measured (“fluorescence intensity (a.u.)”: median about 10,000, highest 2% from about 52,000 on). The entries come from a sample that favours the highest values as a whole.

Worked cases, answers included:
For `GCCTGATTATCCATTGTTCATCCTGCCATATTGATTTCAGCGGAGTCACCTAGTGCAG` , what is its reported binding signal? 30300 fluorescence intensity (a.u.)

# iterate: `GCTGATTGATTCATTCTGATCTGAACATATAGACAACCATCGGAGTCACCTAGTGCAG` 54700 fluorescence intensity (a.u.)

# iterate: `ACGGTAATTAACGTTGATTACCATAATTAGCGGCGCATTGCGGAGTCACCTAGTGCAG` 65200 fluorescence intensity (a.u.)

# iterate: `TGCATTAATTATTGGAGAGTGCGGTCTCCTCTCCTCCCTCCGGAGTCACCTAGTGCAG` 23200 fluorescence intensity (a.u.)

# iterate: `TTCTGATCACAGATCAATTACTCTTGATCGCCCATTTATTCGGAGTCACCTAGTGCAG` 9590 fluorescence intensity (a.u.)

# iterate: `GGTAATTTGTCCGGTATTGAAAGTTTAGGGTGAGCAATGTCGGAGTCACCTAGTGCAG` 22900 fluorescence intensity (a.u.)

Continue with the next sequence.
For `CCATTAATTAATTAACCTGCAGCCTCAATTATTTGGTCTCCGGAGTCACCTAGTGCAG` , what is its reported binding signal? 57600 fluorescence intensity (a.u.)

====

System Under Test: OsWOX13 (Oryza sativa, UniProt Q5QMM3 1-267)
Sequence: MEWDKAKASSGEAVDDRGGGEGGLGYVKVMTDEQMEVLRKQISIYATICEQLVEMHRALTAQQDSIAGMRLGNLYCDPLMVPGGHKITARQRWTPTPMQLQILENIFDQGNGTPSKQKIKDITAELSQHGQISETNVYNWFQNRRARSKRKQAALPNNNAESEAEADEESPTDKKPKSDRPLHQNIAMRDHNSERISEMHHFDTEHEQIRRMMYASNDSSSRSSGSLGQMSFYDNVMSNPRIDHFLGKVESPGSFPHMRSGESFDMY
Assay Method Text: protein-binding microarray (RPBM); PBS, 2% BSA, 51.3 ng/ul salmon testes DNA, 50 uM zinc acetate, 200 nM TF, 25 C, 1 h; high values mean tight binding
Condition Set: protein: recombinant; tags: N-terminal polyhistidine and DsRed monomer fusion (pET32a); label: CyDye5-dUTP incorporated in the synthesized complementary strand; 3' TTTTT single-stranded linker to array surface; dsDNA, one strand shown
Over roughly 35,000 sequences, “fluorescence intensity (a.u.)” has its median near 10,000; the highest 2% begin near 52,000. Shown is part of a subset that was picked to be rich in the highest values.
Quantity Kind: binding signal

Worked cases, answers included:
For `CCATCGTAATTGATCGAAAACTGACAACATGTTAGGGTTGCGGAGTCACCTAGTGCAG` , what is its reported binding signal? 12700 fluorescence intensity (a.u.)

# iterate: `AATGATGATTGATGGGTCATGGCACAAGGACGCTAAACCGCGGAGTCACCTAGTGCAG` 40700 fluorescence intensity (a.u.)

# iterate: `ACAAACACGTAATAACATTAATTTCAATCTACACATCATACGGAGTCACCTAGTGCAG` 9270 fluorescence intensity (a.u.)

# iterate: `ATTCTCTCTTTTGCTCGCTTTGTTCCCTTTTCTTTCTTTTCGGAGTCACCTAGTGCAG` 3770 fluorescence intensity (a.u.)

# iterate: `TCAAAATCAGTTTGAGTAAATTTTATTTTGGTTCAACTTTCGGAGTCACCTAGTGCAG` 6800 fluorescence intensity (a.u.)

Continue with the next sequence.
For `TCTCGCTTCTGCCACTGCTGGCTGTGCTGCTTCCCTAGCTCGGAGTCACCTAGTGCAG` , what is its reported binding signal? 65100 fluorescence intensity (a.u.)
